Taken from patent US11492346B2.

Molecular target: KAT6A (Homo sapiens (Human))
Sequence (Q92794 whole entry): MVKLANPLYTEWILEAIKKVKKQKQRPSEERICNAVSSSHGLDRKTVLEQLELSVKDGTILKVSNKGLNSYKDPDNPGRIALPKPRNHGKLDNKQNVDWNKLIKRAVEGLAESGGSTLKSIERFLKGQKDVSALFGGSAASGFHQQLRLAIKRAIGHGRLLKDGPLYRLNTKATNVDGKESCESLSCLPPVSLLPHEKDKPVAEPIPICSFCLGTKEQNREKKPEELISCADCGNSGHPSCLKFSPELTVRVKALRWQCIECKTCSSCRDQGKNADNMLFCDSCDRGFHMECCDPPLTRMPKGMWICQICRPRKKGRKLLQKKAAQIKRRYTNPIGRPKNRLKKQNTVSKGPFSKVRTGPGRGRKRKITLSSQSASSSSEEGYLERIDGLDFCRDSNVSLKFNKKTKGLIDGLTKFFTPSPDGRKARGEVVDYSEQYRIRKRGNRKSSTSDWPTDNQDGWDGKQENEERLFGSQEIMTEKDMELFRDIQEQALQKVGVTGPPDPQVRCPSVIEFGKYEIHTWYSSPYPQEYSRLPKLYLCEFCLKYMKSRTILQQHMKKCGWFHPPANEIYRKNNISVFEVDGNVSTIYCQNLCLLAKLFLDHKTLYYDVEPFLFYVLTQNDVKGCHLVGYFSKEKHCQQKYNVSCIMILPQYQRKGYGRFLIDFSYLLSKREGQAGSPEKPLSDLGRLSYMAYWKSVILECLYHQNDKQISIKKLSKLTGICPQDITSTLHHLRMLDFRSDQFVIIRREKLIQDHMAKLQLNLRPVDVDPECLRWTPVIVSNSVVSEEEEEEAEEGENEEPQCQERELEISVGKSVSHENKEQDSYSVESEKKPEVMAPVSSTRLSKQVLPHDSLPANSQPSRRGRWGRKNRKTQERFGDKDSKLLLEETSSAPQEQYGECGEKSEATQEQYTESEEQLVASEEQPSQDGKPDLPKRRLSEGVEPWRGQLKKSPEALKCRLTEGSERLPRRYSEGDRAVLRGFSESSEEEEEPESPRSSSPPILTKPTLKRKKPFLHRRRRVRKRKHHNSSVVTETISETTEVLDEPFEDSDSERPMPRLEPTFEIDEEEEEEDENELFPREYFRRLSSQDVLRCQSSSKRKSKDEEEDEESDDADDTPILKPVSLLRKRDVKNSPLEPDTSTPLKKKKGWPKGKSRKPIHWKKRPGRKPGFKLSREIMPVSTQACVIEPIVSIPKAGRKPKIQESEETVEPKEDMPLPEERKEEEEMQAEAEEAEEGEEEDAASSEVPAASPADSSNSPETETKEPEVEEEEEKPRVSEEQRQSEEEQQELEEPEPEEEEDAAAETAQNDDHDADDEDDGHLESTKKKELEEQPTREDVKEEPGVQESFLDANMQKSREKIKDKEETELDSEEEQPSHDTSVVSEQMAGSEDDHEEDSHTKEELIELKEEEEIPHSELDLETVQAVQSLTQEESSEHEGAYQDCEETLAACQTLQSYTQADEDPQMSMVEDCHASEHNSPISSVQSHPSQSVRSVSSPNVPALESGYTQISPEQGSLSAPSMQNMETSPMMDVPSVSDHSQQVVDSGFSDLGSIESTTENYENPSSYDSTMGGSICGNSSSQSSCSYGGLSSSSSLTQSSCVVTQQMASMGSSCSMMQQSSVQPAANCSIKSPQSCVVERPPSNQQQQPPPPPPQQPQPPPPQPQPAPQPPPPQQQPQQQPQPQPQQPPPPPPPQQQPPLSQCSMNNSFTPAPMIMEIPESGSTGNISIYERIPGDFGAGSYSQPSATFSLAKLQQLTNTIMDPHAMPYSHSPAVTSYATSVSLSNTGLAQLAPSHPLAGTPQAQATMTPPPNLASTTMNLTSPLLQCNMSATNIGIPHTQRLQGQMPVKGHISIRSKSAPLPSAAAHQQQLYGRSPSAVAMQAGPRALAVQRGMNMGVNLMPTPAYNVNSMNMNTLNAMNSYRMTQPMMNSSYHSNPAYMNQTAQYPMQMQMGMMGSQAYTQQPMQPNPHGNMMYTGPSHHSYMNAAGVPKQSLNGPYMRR
Assay: KAT assay (SAMDI mass spectrometry), KAT6A;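 further: Baculovirus-expressed KAT6A acetylating histone H3 (1-21) peptide (2 µM), 30-60 min at room temperature, % product conversion fitted to Morrison equation for tight-binding competitive inhibitors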
Assay type: biochemical
Settings: read-out: KAT6a Ki at 1 μM AcCoA; 1 μM AcCoA
Mark met only for Ki values smaller than 2 nM; exact matches and larger values are not met.

Use the examples below as a reference point.
Given the entry COc1cc(C)ccc1S(=O)(=O)Nc1noc2cc(Cn3cccn3)ccc12 , would its reported Ki be below 2 nM?
not met

Record: COCc1ccccc1S(=O)(=O)Nc1noc2cc(Cn3cccn3)cc(OC)c12
not met

Record: COc1cccc(OC)c1S(=O)(=O)Nc1noc2cc(Cn3cc(CO)cn3)cc(OC)c12
not met

Record: COc1cccc(OC)c1S(=O)(=O)Nc1noc2cc(Cn3cccn3)ccc12
not met

***
Given the entry COc1cccc(F)c1S(=O)(=O)Nc1noc2cc(Cn3cccn3)cc(OC)c12 , would its reported Ki be below 2 nM?
met

Record: COc1cc(OC)c(S(=O)(=O)Nc2noc3cc(Cn4cccn4)cc(OC4CC4)c23)c(OC)c1
not met

Record: COc1ccc(C2CC2)cc1S(=O)(=O)Nc1noc2cc(Cn3cccn3)cc(OC)c12
met

Record: COc1cc(OC)cc(S(=O)(=O)Nc2noc3cc(Cn4cccn4)cc(OC)c23)c1
not met

Record: COc1cc(Cn2cccn2)cc2onc(NS(=O)(=O)c3cccc(C)c3F)c12
not met

Record: COc1cccc(OC)c1S(=O)(=O)Nc1noc2cc(Cn3cccn3)cc(C3CC3)c12
met

Record: COc1cc(Br)cc(OC)c1S(=O)(=O)Nc1noc2cc(Cn3cccn3)cc(OC)c12
met

Record: CCOc1cc2c(NS(=O)(=O)c3c(OC)cccc3OC)noc2cc1Cn1cccn1
met

Record: COc1cccc(OC)c1S(=O)(=O)Nc1noc2cc(Cc3ncccn3)cc(OC)c12
not met

Record: CCc1cc(Cn2cccn2)cc2onc(NS(=O)(=O)c3c(OC)cccc3OC)c12
not met
